System: Cryptococcus neoformans
Experiment: Growth inhibition of Cryptococcus neoformans H99 ATCC 208821 at 32 ug/ml after 24 hrs by resazurin dye-based microspectrophotometric assay
Format: functional
Settings: var. grubii H99 ATCC 208821, 24 h, read-out: GI
measurementType: inhibition of growth at 32 µg/mL
Kindly write the number and append the unit.

{"structureNotation": "CC(C)(C)OC(=O)[C@@H]1CCCN1C(=O)N1CCCN1C(=O)[C@@H]1CCCN1C(=O)N1CCCN1C(=O)[C@@H]1CCCN1C(=O)N1CCCN1C(=O)[C@@H]1CCCN1C(=O)N1CCCN1C(=O)[C@@H]1CCCN1C(=O)N1CCCN1C(=O)[C@@H]1CCCN1C(=O)N1CCCN1C(=O)[C@@H]1CCCN1C(=O)N1CCCN1C(=O)[C@@H]1CCCN1C(=O)N1CCCN1", "studyTarget": "Cryptococcus neoformans", "recordedResult": "-3.43%"}

# next compound below
## Task Dear colleague, I am looking for the recorded inhibition of growth at 32 µg/mL of the following compound: "O=C(OCc1ccccc1)N1CCCN1C(=O)[C@@H]1CCCN1C(=O)N1CCCN1C(=O)[C@@H]1CCCN1C(=O)N1CCCN1C(=O)[C@@H]1CCCN1C(=O)N1CCCN1C(=O)[C@@H]1CCCN1C(=O)N1CCCN1C(=O)[C@@H]1CCCN1C(=O)N1CCCN1C(=O)[C@@H]1CCCN1C(=O)N1CCCN1C(=O)[C@@H]1CCCN1C(=O)N1CCCN1C(=O)[C@@H]1CCCN1"
## Result 0.967%

---

Assay: Hemolytic activity against human RBC at 0.78 uM after 1 hr by Drabkin's assay relative to control
Format: ADME, cell-based, Erythrocyte
Conditions: human red blood cells (erythrocytes), read-out: Activity
Some molecules, each annotated with its measured hemolysis at 1 h, 0.78 µM.
Respond numerically; units are % and should not be typed.

Example cases with answers are listed next.
{"structureNotation": "CC(C)(C)OC(=O)[C@@H]1CCCN1C(=O)N1CCCN1C(=O)[C@@H]1CCCN1C(=O)N1CCCN1C(=O)[C@@H]1CCCN1C(=O)N1CCCN1C(=O)[C@@H]1CCCN1C(=O)N1CCCN1C(=O)[C@@H]1CCCN1C(=O)N1CCCN1C(=O)[C@@H]1CCCN1C(=O)N1CCCN1C(=O)[C@@H]1CCCN1C(=O)N1CCCN1C(=O)[C@@H]1CCCN1C(=O)N1CCCN1.Cl", "hemolysis at 1 h, 0.78 µM (%)": -0.903}
{"structureNotation": "O=C(NCCO)[C@@H]1CCCN1C(=O)N1CCCN1C(=O)[C@@H]1CCCN1C(=O)N1CCCN1C(=O)[C@@H]1CCCN1C(=O)N1CCCN1C(=O)[C@@H]1CCCN1C(=O)N1CCCN1C(=O)[C@@H]1CCCN1C(=O)N1CCCN1C(=O)[C@@H]1CCCN1C(=O)N1CCCN1C(=O)[C@@H]1CCCN1C(=O)N1CCCN1C(=O)[C@@H]1CCCN1C(=O)N1CCCN1C(=O)OCc1ccccc1", "hemolysis at 1 h, 0.78 µM (%)": 0.15}
{"structureNotation": "O=C(O)[C@@H]1CCCN1C(=O)N1CCCN1C(=O)[C@@H]1CCCN1C(=O)N1CCCN1C(=O)[C@@H]1CCCN1C(=O)N1CCCN1C(=O)[C@@H]1CCCN1C(=O)N1CCCN1C(=O)OCc1ccccc1", "hemolysis at 1 h, 0.78 µM (%)": 0.09}

# next molecule below
## Task Dear colleague, I am looking for the recorded hemolysis at 1 h, 0.78 µM of the following molecule: "O=CN1CCCN1C(=O)N1CCC[C@H]1C(=O)N1CCCN1C(=O)N1CCC[C@H]1C(=O)N1CCCN1C(=O)N1CCC[C@H]1C(=O)N1CCCN1C(=O)N1CCC[C@H]1C(=O)N1CCCN1C(=O)N1CCC[C@H]1C(=O)N1CCCN1C(=O)N1CCC[C@H]1C(=O)N1CCCN1C(=O)N1CCC[C@H]1C(=O)N1CCCN1C(=O)N1CCC[C@H]1C(=O)NCCO"
## Result 0.08

From: ChEMBL document CHEMBL4196059
